All values here come from the supplement of paper PMC11061612.

Test system: COLO-684 (Endometrial Carcinoma)
protocol: Bliss excess, mean over the matrix (fraction); higher = more synergy
# Bliss excess listing for each entry below

Consider the reported Bliss excess for these molecules:
- C[C@@H](c1ccc2nccn2c1)n1nnc2ncc(-c3cnn(C)c3)nc21 [Savolitinib] + CC1(C)CCC(CN2CCN(c3ccc(C(=O)NS(=O)(=O)c4ccc(NCC5CCOCC5)c([N+](=O)[O-])c4)c(Oc4cnc5[nH]ccc5c4)c3)CC2)=C(c2ccc(Cl)cc2)C1 [Venetoclax] (first compound max 1 µM, 7x7, partner max 1 µM): -0.0458
- COc1nnc2ccc(N3CCC(c4ccc(OCCN5CCN(C)C(=O)[C@H]5C)cc4)CC3)nn12 [AZD5153] + C[C@@H]1COCCN1C2=NC(=NC(=C2)C3(CC3)[S@](=N)(=O)C)C4=C5C=CNC5=NC=C4 [AZD6738] (first compound max 1 µM, 7x7, partner max 10 µM): -0.0231

Q: Fill in the blank: the reported Bliss excess of CN(CCO)CC[C@H](CSc1ccccc1)Nc1ccc(S(=O)(=O)NC(=O)c2ccc(N3CCC([C@@H](O)c4ccccc4-c4ccc(Cl)cc4)CC3)cc2)cc1S(=O)(=O)C(F)(F)F [AZD4320] + CN(C)CCCOc1ccc(-c2ccc3ncc4c(c3c2)n(C2CCOCC2)c(=O)n4C)cn1 [AZD0156] (first compound max 1 µM, 7x7, partner max 1 µM) is ____.
Result: -0.0218

----------
System: Caov-3 (Ovarian Carcinoma)
protocol: combination Emax (second highest fraction inhibited in the dose matrix, 72 h); higher = more inhibition; extreme values may be limits of the assay
# combination Emax listing for each entry below
Please give the numeric answer without any surrounding text.

Consider the reported combination Emax for these molecules:
• COc1cccc(OCCCN)c1-c1cc(Nc2cnc(C#N)cn2)n[nH]1 [Prexasertib] + O=C(c1cc(Cc2n[nH]c(=O)c3ccccc23)ccc1F)N1CCN(C(=O)C2CC2)CC1 [Olaparib] (first compound max 1 µM, 7x7, partner max 10 µM) = 0.855
• CCN(CCO)CCCOc1ccc2c(Nc3cc(CC(=O)Nc4cccc(F)c4)[nH]n3)ncnc2c1 [AZD2811] + O=C(c1cc(Cc2n[nH]c(=O)c3ccccc23)ccc1F)N1CCN(C(=O)C2CC2)CC1 [Olaparib] (first compound max 1 µM, 7x7, partner max 10 µM) = 0.82
• COc1cc2c(cc1OCCCCCOc1cc3c(cc1OC)C(=O)N1C=C(C)C[C@H]1C=N3)N=C[C@@H]1CC(C)=CN1C2=O [SG3199] + O=C(c1cc(Cc2n[nH]c(=O)c3ccccc23)ccc1F)N1CCN(C(=O)C2CC2)CC1 [Olaparib] (first compound max 0.001 µM, 7x7, partner max 10 µM) = 0.202

Q: Fill in the blank: the reported combination Emax of CN(CCO)CC[C@H](CSc1ccccc1)Nc1ccc(S(=O)(=O)NC(=O)c2ccc(N3CCC([C@@H](O)c4ccccc4-c4ccc(Cl)cc4)CC3)cc2)cc1S(=O)(=O)C(F)(F)F [AZD4320] + C[C@@H]1COCCN1C2=NC(=NC(=C2)C3(CC3)[S@](=N)(=O)C)C4=C5C=CNC5=NC=C4 [AZD6738] (first compound max 1 µM, 7x7, partner max 10 µM) is ____.
Result: 0.958

----------
Tested on: NCI-H1755 (Lung Adenocarcinoma)
protocol: Bliss excess, mean over the matrix (fraction); higher = more synergy
# Bliss excess listing for each entry below

- NC1(C(=O)N[C@@H](CCO)c2ccc(Cl)cc2)CCN(c2ncnc3[nH]ccc23)CC1 [Capivasertib] + C[C@@H]1COCCN1C2=NC(=NC(=C2)C3(CC3)[S@](=N)(=O)C)C4=C5C=CNC5=NC=C4 [AZD6738] (first compound max 10 µM, 7x7, partner max 10 µM): -0.0244
- Cc1nc(-c2cn3c(n2)-c2ccc(-c4cnn(C(C)(C)C(N)=O)c4)cc2OCC3)n(C(C)C)n1 [Taselisib] + O=C(Nc1ccc2[nH]nc(-c3ccncc3)c2c1)[C@@H]1CCN(CC(=O)N2CCN(c3ccc(-c4ncccn4)cc3)CC2)C1 [SCH772984] (first compound max 10 µM, 7x7, partner max 5 µM): 0.0655

Q: Fill in the blank: the reported Bliss excess of C[C@@H](c1ccc2nccn2c1)n1nnc2ncc(-c3cnn(C)c3)nc21 [Savolitinib] + Cc1c2c(nn1C)CSCc1cc(n(C)n1)CSc1cc(c3ccccc3c1)OCCCc1c(C(=O)O)n(C)c3c-2c(Cl)ccc13 [AZD5991] (first compound max 1 µM, 7x7, partner max 1 µM) is ____.
Result: -0.0361
